Biological target: CCR2 (Homo sapiens, UniProt P41597)
Sequence (P41597 whole entry): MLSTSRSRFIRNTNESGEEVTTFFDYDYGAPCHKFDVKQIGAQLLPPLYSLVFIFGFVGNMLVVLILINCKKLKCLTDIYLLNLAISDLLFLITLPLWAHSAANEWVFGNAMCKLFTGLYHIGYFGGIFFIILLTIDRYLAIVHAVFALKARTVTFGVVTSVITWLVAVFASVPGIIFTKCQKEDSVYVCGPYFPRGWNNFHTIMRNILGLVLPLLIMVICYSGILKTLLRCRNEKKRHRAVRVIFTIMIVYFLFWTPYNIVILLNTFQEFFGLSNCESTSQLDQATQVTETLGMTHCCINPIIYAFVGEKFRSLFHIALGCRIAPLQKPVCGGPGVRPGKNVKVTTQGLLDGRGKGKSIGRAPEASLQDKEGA
Assay: calcium flux assay
Conditions: read-out: IC50 Ca++ flux
experimentalEndpoint: IC50

Below, 2 compounds whose answers are already recorded.
compound: O=C(NCCN1CCCC1)c1cc(CN2CCC(CC3CC3)(C(=O)NCc3cc(C(F)(F)F)cc(C(F)(F)F)c3)CC2)ccc1F [Example 59]
IC50: > 1000 nM

compound: CC(C)CC1(C(=O)NCc2cc(C(F)(F)F)cc(C(F)(F)F)c2)CCN(CC2CCOCC2)CC1 [Example 12]
IC50: > 1000 nM

Let's switch to this compound now.
API: value(readout= IC50, system= CCR2 (Homo sapiens, UniProt P41597), query= CC(C)CC1(C(=O)NCc2cc(C(F)(F)F)cc(C(F)(F)F)c2)CCN(c2ccccn2)CC1 [Example 19] ) > 1000 nM

====

Target: CCR2 (Homo sapiens, UniProt P41597)
Test: calcium flux assay
Details: read-out: IC50 Ca++ flux
// reported IC50 for each item listed

Would you please look over these solved cases?
compound: O=C(NCc1cc(C(F)(F)F)cc(C(F)(F)F)c1)C1(Cc2ccncc2)CCN(CC2CCOCC2)CC1
IC50: > 1000 nM
//
compound: COc1ccc(CN2CCC(CC3CC3)(C(=O)NCc3cc(C(F)(F)F)cc(C(F)(F)F)c3)C2)cc1F (stereo not shown)
IC50: 200 to 1000 nM
//
compound: O=C(NCc1cc(C(F)(F)F)cc(C(F)(F)F)c1)C1(CC2CC2)CCN(Cc2ccc3c(c2)OC(F)(F)O3)CC1
IC50: < 200 nM
//
compound: CC(C)CC1(C(=O)NCc2cc(C(F)(F)F)cc(C(F)(F)F)c2)CCN(CC(=O)N2CCS(=O)(=O)CC2)CC1
IC50: > 1000 nM
//
compound: CC(C)(CN1CCC(CC2CC2)(C(=O)NCc2cc(C(F)(F)F)cc(C(F)(F)F)c2)CC1)N1CCOCC1
IC50: 200 to 1000 nM

Need IC50 of O=C(O)c1cc(CN2CCC(CC3CC3)(C(=O)NCc3cc(C(F)(F)F)cc(C(F)(F)F)c3)C2)ccc1F (stereo not shown) , thanks. 200 to 1000 nM

What IC50 value was documented for this compound, "COc1ccc(CN2CCC(CC(C)C)(C(=O)NCc3cc(C(F)(F)F)cc(C(F)(F)F)c3)CC2)cc1O" ? < 200 nM

Values compiled from patent US20100210633A1.
